Listed here: items and their measured normalized growth.
experiment: chemical genetic growth profiling, strain panel (AID 1159580);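 note: tested at 20 µM; growth read once vehicle control cultures reached saturation at 30 °C; 1 = growth at the plate median or of vehicle wells; lower values mean less growth of the strain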; settings: S. cerevisiae deletion strains, growth OD, locus YAL013W, strain DEP1, hits give low values
In all, about 5,500 compounds went through this assay and about 2,000 (36%) were called active. Roughly 18% stayed inconclusive and do not appear here. This is one part of the list. *1 amine or outer side, *2 acyl side, *3 side chain or, on linkers, in order; H or OH if unused. Where a SMILES comes first, the peptide text is derived from it. Bridges are numbered along the chain shown (N, C = ends). [ ]: non-standard residue; d: D form. The star is where a group is joined. ξ: configuration not given here. ΔAla(E,3-NHCONH2) = NC(=O)N/C=C(/N)C(=O)O; X2 = NC1=NCCC(C(N[*:1])C(=O)[*:2])N1; ξβ3hOrn = NCCCC(N)CC(=O)*; Dap = NC[CH](N)C(=O)O

Compound: COc1cc2nc(-c3cccs3)oc(=O)c2cc1OC
normalized growth: 0.984

Compound: CC(C)(C)c1ccc(CSc2nc(N)cc(=O)[nH]2)cc1
normalized growth: 0.993

Compound: CSc1nc(N)nc(N2CCCCC2)n1
normalized growth: 1

Compound: CC(=O)NCCc1c[nH]c2ccccc12
normalized growth: 1

Compound: CC(C)S(=O)(=O)c1csc(C(N)=O)c1Cl
normalized growth: 1.01

Compound: COc1cc(NS(=O)(=O)c2ccc(N)cc2)ncn1
normalized growth: 0.998

Compound: CCCc1nc2c(C)cc(-c3nc4ccccc4n3C)cc2n1Cc1ccc(-c2ccccc2C(=O)O)cc1
normalized growth: 1.01

Compound: COC(=O)[C@]1(C)CC[C@]2(C)CC[C@]3(C)C4=CC=C5C(=CC(=O)C(O)=C5C)[C@]4(C)CC[C@@]3(C)[C@@H]2C1
normalized growth: 0.592

Compound: CNC(Cc1c[nH]c2ccccc12)C(=O)O (stereo unspecified)
normalized growth: 0.988

Compound: O=c1oc2c(O)c(O)cc3c(=O)oc4c(O)c(O)cc1c4c23
normalized growth: 0.55

Compound: O=C1C=C(Cl)CC(c2ccc(C(F)(F)F)cc2)C1 (stereo unspecified)
normalized growth: 1

Compound: O=C(CCBr)N1CCN(C(=O)CCBr)CC1
normalized growth: 1

Compound: CC(=O)N[C@@H](Cc1c[nH]c2ccccc12)C(=O)O
normalized growth: 1.01

Compound: NCCCC(N)CC(=O)NCC1NC(=O)C(CO)NC(=O)C(N)CNC(=O)C(C2CCN=C(N)N2)NC(=O)/C(=C\NC(N)=O)NC1=O (stereo not drawn) (H-[Dap]S[Dap](ξβ3hOrn)[ΔAla(E,3-NHCONH2)][X2]; lactam 1-C; configuration not given here)
normalized growth: 0.999

Compound: Cc1cc(=O)n(-c2ccccc2)n1C
normalized growth: 1.02

Compound: Cc1ccc(OCc2nnc(SCC(=O)c3ccc(F)cc3)n2-c2ccccc2)c2c1CCC2
normalized growth: 0.982

Compound: NC[C@H]1O[C@H](O[C@H]2[C@H](O)[C@@H](O[C@H]3O[C@H](CO)[C@@H](O)[C@H](N)[C@H]3O)[C@H](N)C[C@@H]2N)[C@H](N)C[C@@H]1O
normalized growth: 1

Compound: CCCCCN(CCCCC)C(=O)C(CCC(=O)O)NC(=O)c1ccc(Cl)c(Cl)c1 (stereo unspecified)
normalized growth: 1.01

Compound: Cn1c(=O)c(-c2ccccc2)c(O)c2ccccc21
normalized growth: 0.868

Compound: CC(C)(C)c1ccc(-c2cc(N)c(C(N)=O)s2)cc1
normalized growth: 0.978

Compound: CC(C)(C)c1cc(-c2cc(C(F)(F)F)[nH]n2)c2c(c1)C(C)(C)CC2
normalized growth: 0.976
